TEST DESCRIPTION: Plasma protein binding in rat
Format: ADME, cell-free
SETUP CONDITIONS: read-out: PPB (converted)
METRIC: fraction unbound

INSERT INTO measurements (structure_smiles, observed_measurement) VALUES
  ('Cc1onc(-c2ccc(F)cc2)c1COc1ccc2c(n1)CCN(C(=O)CS(C)(=O)=O)C2', 0.04);

====

TEST DESCRIPTION: […] in po dosed Wistar rat assessed as NED by Irwin test
Type: organism-based
SETUP CONDITIONS: in vivo, read-out: ED
METRIC: NOAEL

INSERT INTO results (structure_smiles, observed_measurement) VALUES
  ('Cc1onc(-c2ccc(F)cc2)c1COc1ccc2c(n1)CCN(C(=O)CS(C)(=O)=O)C2', '≥ 300 mg/kg');

====

TEST DESCRIPTION: Toxicity in po dosed Wistar rat assessed NOAEL by 4 days toxicology study
Format: organism-based
SETUP CONDITIONS: in vivo, time 4 day
METRIC: NOAEL at 96 h

INSERT INTO measurements (structure_smiles, metric, observed_measurement) VALUES
  ('Cc1onc(-c2ccc(F)cc2)c1COc1ccc2c(n1)CCN(C(=O)CS(C)(=O)=O)C2', 'NOAEL at 96 h', '≥ 500 mg/kg');

====

TEST DESCRIPTION: AUC (0 to infinity) in Wistar rat total plasma at 1 mg/kg, po by HPLC-MS/MS analysis
Format: ADME, organism-based
Design: time infinity, dose 1 mg/kg, route po
METRIC: AUC(0-inf) (ng·h/mL)

INSERT INTO results (structure_smiles, unit_descriptor, observed_measurement) VALUES
  ('CC(=O)N1Cc2ccc(OCc3c(C)nnn3-c3ccc(F)cc3)nc2C1', 'ng·h/mL', 43.7),
  ('Cc1onc(-c2ccc(F)cc2)c1COc1ccc2c(n1)CCN(C(=O)CS(C)(=O)=O)C2', 'ng·h/mL', 146),
  ('CC(=O)N1CCc2nc(OCc3c(C)nnn3-c3ccc(F)cc3)ccc2C1', 'ng·h/mL', 20.4);

====

TEST DESCRIPTION: Thermodynamic solubility of the compound at pH 7.4
Assay type: physicochemical
SETUP CONDITIONS: buffer, read-out: Therm_solubility
METRIC: solubility thermodynamic

INSERT INTO measurements (structure_smiles, observed_measurement) VALUES
  ('Cc1onc(-c2ccc(F)cc2)c1COc1ccc2c(n1)CCN(C(=O)CS(C)(=O)=O)C2', '0.081 µM');

====

TEST DESCRIPTION: Apparent permeability in human Caco-2 cells at 10 uM by HPLC-UV analysis
Assay type: ADME, cell-based
METRIC: Papp at 10 µM (×10⁻⁶ cm/s)

INSERT INTO assay_data (compound, observed_measurement) VALUES
  ('Cc1nnn(-c2ccc(F)cc2)c1COc1ccc2c(n1)CCN(CCS(C)(=O)=O)C2=O', 22),
  ('Cc1onc(-c2ccc(F)cc2)c1COc1ccc2c(n1)CCN(CCS(C)(=O)=O)C2=O', 49.3),
  ('CC(=O)N1Cc2ccc(OCc3c(C)nnn3-c3ccc(F)cc3)nc2C1', 54.5),
  ('Cc1nnn(-c2ccc(F)cc2)c1COc1ccc2c(n1)CCN(C(=O)C1CCCO1)C2 (centres undefined)', 47.1),
  ('Cc1nnn(-c2ccc(F)cc2)c1COc1ccc2c(n1)CCN(C(=O)C1CC(=O)N(C)C1)C2 (centres undefined)', 7.54),
  ('Cc1nnn(-c2ccc(F)cc2)c1COc1ccc2c(n1)CCN(C(=O)C1CCOC1)C2 (centres undefined)', 44.6),
  ('CC(=O)N1CCc2nc(OCc3c(C)nnn3-c3ccc(F)cc3)ccc2C1', 52.8),
  ('Cc1nnn(-c2ccc(F)cc2)c1COc1ccc2c(n1)CCN(C(=O)NC1CCOC1)C2 (centres undefined)', 18.7),
  ('Cc1nnn(-c2ccc(F)cc2)c1COc1ccc2c(n1)CCN(C(=O)NC1CC(=O)N(C)C1)C2 (centres undefined)', 0.33);
